- assay-protocol: self-splicing fitness, log relative to wild type (ln ratio); higher = more splicing; Tetrahymena group I intron in knt gene, E. coli kanamycin selection, DiMSum; sequences stand for … in CUCUCU…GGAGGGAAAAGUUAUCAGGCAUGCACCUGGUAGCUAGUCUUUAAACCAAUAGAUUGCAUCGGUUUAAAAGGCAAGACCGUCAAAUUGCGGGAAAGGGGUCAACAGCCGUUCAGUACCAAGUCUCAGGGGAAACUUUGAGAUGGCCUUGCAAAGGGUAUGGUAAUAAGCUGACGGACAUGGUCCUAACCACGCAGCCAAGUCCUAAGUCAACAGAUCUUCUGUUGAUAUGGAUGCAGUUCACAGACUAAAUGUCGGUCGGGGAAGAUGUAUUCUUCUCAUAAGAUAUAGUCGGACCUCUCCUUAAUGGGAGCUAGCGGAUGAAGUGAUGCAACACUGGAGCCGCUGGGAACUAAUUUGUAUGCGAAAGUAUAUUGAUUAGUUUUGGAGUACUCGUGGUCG;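 note: selection with 25 µg/mL kanamycin versus none on LB agar overnight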
- experimental-conditions: 37 °C
measured-metric: self-splicing fitness (ln)
Number only, please.

IN: Quick one: self-splicing fitness (ln) for AGUAAGCAAUAUUACGGGAG ?
OUT: -2.43

IN: Quick one: self-splicing fitness (ln) for ACAUAGCAAUAUUACGGCCU ?
OUT: 0.129

IN: Quick one: self-splicing fitness (ln) for CGAGAGCAAUAUUACGGUUU ?
OUT: -2.58

IN: Quick one: self-splicing fitness (ln) for GUCAAGCAAUAUUACGUCUC ?
OUT: -0.461

IN: Quick one: self-splicing fitness (ln) for UUGCAGCAAUAUUACGAUUG ?
OUT: -0.337

IN: Quick one: self-splicing fitness (ln) for UAAAAGCAAUAUUACGAGCA ?
OUT: -0.276

IN: Quick one: self-splicing fitness (ln) for CCAGAGCAAUAUUACGUCAA ?
OUT: -2.3

IN: Quick one: self-splicing fitness (ln) for GCCGAGCAAUAUUACGGCCC ?
OUT: -1.93

IN: Quick one: self-splicing fitness (ln) for ACCGAGCAAUAUUACGCUAC ?
OUT: -2.86

IN: Quick one: self-splicing fitness (ln) for GAACAGCAAUAUUACGUCUG ?
OUT: -0.775

IN: Quick one: self-splicing fitness (ln) for UGGCAGCAAUAUUACGGGGU ?
OUT: -2.62

IN: Quick one: self-splicing fitness (ln) for AUGAAGCAAUAUUACGUUAC ?
OUT: -2.38

IN: Quick one: self-splicing fitness (ln) for AGGAAGCAAUAUUACGUUUG ?
OUT: -2.48

IN: Quick one: self-splicing fitness (ln) for CGUAAGCAAUAUUACGCAAA ?
OUT: -1.48

IN: Quick one: self-splicing fitness (ln) for UCCAAGCAAUAUUACGGUCG ?
OUT: -0.886

IN: Quick one: self-splicing fitness (ln) for AUUGAGCAAUAUUACGUAGU ?
OUT: -0.638

---

What self-splicing fitness (ln) was measured for each of the following?
- assay-protocol: self-splicing fitness, log relative to wild type (ln ratio); higher = more splicing; Tetrahymena group I intron in knt gene, E. coli kanamycin selection, DiMSum; sequences stand for … in CUCUCU…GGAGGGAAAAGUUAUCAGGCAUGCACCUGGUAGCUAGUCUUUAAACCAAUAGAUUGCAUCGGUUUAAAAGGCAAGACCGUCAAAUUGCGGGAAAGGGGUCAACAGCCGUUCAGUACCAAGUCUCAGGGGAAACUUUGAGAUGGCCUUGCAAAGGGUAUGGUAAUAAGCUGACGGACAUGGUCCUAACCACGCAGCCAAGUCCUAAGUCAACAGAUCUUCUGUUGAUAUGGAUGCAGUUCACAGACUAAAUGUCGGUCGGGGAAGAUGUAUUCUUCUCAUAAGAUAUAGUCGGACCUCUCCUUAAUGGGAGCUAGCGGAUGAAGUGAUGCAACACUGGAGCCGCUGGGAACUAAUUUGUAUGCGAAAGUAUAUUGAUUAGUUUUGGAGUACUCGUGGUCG
- experimental-conditions: 37 °C
Number only, please.

IN: Quick one: self-splicing fitness (ln) for AGACAGCAAUAUUACGCACC ?
OUT: 0.279

IN: Quick one: self-splicing fitness (ln) for CAUGAGCAAUAUUACGAUAA ?
OUT: -1.97

IN: Quick one: self-splicing fitness (ln) for GGGUAGCAAUAUUACGUAUG ?
OUT: -1.84

IN: Quick one: self-splicing fitness (ln) for CCACAGCAAUAUUACGUCAA ?
OUT: -2.22

IN: Quick one: self-splicing fitness (ln) for UCGUAGCAAUAUUACGCUGU ?
OUT: -1.67

IN: Quick one: self-splicing fitness (ln) for UGGUAGCAAUAUUACGUCAA ?
OUT: -0.773

IN: Quick one: self-splicing fitness (ln) for GGCUAGCAAUAUUACGACAA ?
OUT: -0.198

IN: Quick one: self-splicing fitness (ln) for CUUCAGCAAUAUUACGUUGG ?
OUT: -4.08

IN: Quick one: self-splicing fitness (ln) for CAGUAGCAAUAUUACGCCCA ?
OUT: -0.476

IN: Quick one: self-splicing fitness (ln) for UGCUAGCAAUAUUACGGAUA ?
OUT: -1.1

IN: Quick one: self-splicing fitness (ln) for CGUCAGCAAUAUUACGGCUA ?
OUT: -0.751

IN: Quick one: self-splicing fitness (ln) for GGGAAGCAAUAUUACGAACU ?
OUT: 1.13

IN: Quick one: self-splicing fitness (ln) for UCCCAGCAAUAUUACGGAUU ?
OUT: -0.582

IN: Quick one: self-splicing fitness (ln) for CUCUAGCAAUAUUACGUAAU ?
OUT: -3.77

IN: Quick one: self-splicing fitness (ln) for CCAAAGCAAUAUUACGCCUA ?
OUT: -3.12

IN: Quick one: self-splicing fitness (ln) for UUGCAGCAAUAUUACGAAGA ?
OUT: -1.57

IN: Quick one: self-splicing fitness (ln) for CUGCAGCAAUAUUACGUCGU ?
OUT: -3.44

IN: Quick one: self-splicing fitness (ln) for CCAAAGCAAUAUUACGUACG ?
OUT: 0.0861

IN: Quick one: self-splicing fitness (ln) for ACUGAGCAAUAUUACGCCUU ?
OUT: -0.418

IN: Quick one: self-splicing fitness (ln) for UGUAAGCAAUAUUACGACCU ?
OUT: -0.0468

IN: Quick one: self-splicing fitness (ln) for ACCGAGCAAUAUUACGGUUU ?
OUT: -2.35

IN: Quick one: self-splicing fitness (ln) for GGUCAGCAAUAUUACGAUCG ?
OUT: 0.097

IN: Quick one: self-splicing fitness (ln) for UUGAAGCAAUAUUACGUCCA ?
OUT: 0.472

IN: Quick one: self-splicing fitness (ln) for AAAUAGCAAUAUUACGGAGG ?
OUT: -2.86

IN: Quick one: self-splicing fitness (ln) for CACCAGCAAUAUUACGCCCU ?
OUT: -0.642

IN: Quick one: self-splicing fitness (ln) for GACAAGCAAUAUUACGGACG ?
OUT: -0.673

IN: Quick one: self-splicing fitness (ln) for AUGAAGCAAUAUUACGAAGA ?
OUT: -0.83

IN: Quick one: self-splicing fitness (ln) for UUAAAGCAAUAUUACGUCGA ?
OUT: 0.262

IN: Quick one: self-splicing fitness (ln) for AGGAAGCAAUAUUACGAAAA ?
OUT: -2.42

IN: Quick one: self-splicing fitness (ln) for AGAAAGCAAUAUUACGGAUA ?
OUT: -1.77

IN: Quick one: self-splicing fitness (ln) for AUUUAGCAAUAUUACGACGG ?
OUT: -0.641

IN: Quick one: self-splicing fitness (ln) for AUACAGCAAUAUUACGAGGG ?
OUT: -2.21

IN: Quick one: self-splicing fitness (ln) for AAAGAGCAAUAUUACGACAA ?
OUT: -2.95

IN: Quick one: self-splicing fitness (ln) for AUUUAGCAAUAUUACGUCGG ?
OUT: -3.18
